The measured values listed here are drawn from the supplement of paper PMC4466140.

Target: ScLsb4
Assay: SPOT peptide array binding signal intensity (averaged, normalized) (arbitrary units (background-subtracted, floor 0; scale differs between SH3 domains)); higher = stronger binding of the SH3 domain to the peptide
attribute_measured: SPOT peptide array binding signal intensity

- RRGPAPPPPPRASRP: 892
- PPPPPPPPPPPLPQS: 7
- TPEIPPPLPPKIMVH: 376
- FPGKKSPRLPHRNKK: 1170
